The measured values listed here are drawn from patent US9663495B2.

Biological target: UniProt Q8TDV5
Sequence (Q8TDV5 whole entry): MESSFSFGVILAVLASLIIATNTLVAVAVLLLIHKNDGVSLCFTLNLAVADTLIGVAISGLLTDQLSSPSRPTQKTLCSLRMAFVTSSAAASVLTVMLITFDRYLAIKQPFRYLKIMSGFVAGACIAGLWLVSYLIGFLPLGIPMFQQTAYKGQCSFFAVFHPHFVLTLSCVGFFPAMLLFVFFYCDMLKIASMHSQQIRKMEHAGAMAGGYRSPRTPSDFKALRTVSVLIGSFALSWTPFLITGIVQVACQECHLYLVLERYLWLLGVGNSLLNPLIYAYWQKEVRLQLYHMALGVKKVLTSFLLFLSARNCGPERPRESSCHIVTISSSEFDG
Assay: cAMP Accumulation Assay (GPR119 CRE-bla CHO-K1 cells, LiveBLAzer-FRET B/G)
Settings: 5 hours incubation
Description: 32 μl of an assay medium (DMEM supplemented with GlutaMax™ 99%, dialyzed FBS 1%, non-essential amino acid 1 mM, HEPES 25 mM, penicillin 100 U/ml, and streptomycin 100 μg/ml) was added to each well of a 384 black well plate and then the GPR119 CRE-bla CHO-K1 cells (Invitrogen) were seeded in 1×10^4 cells per well. Doxycycline was dissolved in the assay medium in the concentration of 1 μg/ml. […]
quantity: log10(EC50) (log10 of the value in nM)
Note the log scale: values are log10 of EC50 expressed in nM.

Quick check: log10(EC50) of `CCc1cnc(N2CCN(c3ncc(-c4ccc(-n5cnn(C)c5=O)c(F)c4)cn3)[C@@H](C)C2)nc1` ?
1.41

Queued: CCc1cnc(N2CCN(c3ncc(-c4ccc(-n5cnn(CCNC(C)C)c5=O)c(F)c4)cc3C#N)[C@@H](C)C2)nc1.Cl [Example 20, hydrochloride]
0.75

Queued: `CCCn1ncn(-c2ccc(-c3cnc(N4CCC(c5nc(C(C)C)no5)CC4)c(C#N)c3)cc2F)c1=O`
0.11

Queued: `CCc1cnc(N2CCN(c3ncc(-c4ccc(-n5cnn([C@@H]6CCOC6)c5=O)cc4)cc3C#N)CC2)nc1`
0.70

Queued: `CCc1cnc(N2CCN(c3ncc(-c4ccc(-n5cnn(CC(=O)OC)c5=O)c(F)c4)cc3C#N)[C@@H](C)C2)nc1`
2.06

Queued: `CC(C)c1nc(N2CCN(c3ncc(-c4ccc(-n5cnn([C@H]6CCOC6)c5=O)c(F)c4)cc3C#N)CC2)no1`
1.08

Queued: `C[C@H]1CN(C(=O)OC(C)(C)C)CCN1c1ncc(-c2ccc(-n3cnn(C)c3=O)c(F)c2)cn1`
1.77

Queued: `CCc1cnc(N2CCN(c3ncc(-c4ccc(-n5cnn(CCNC(C)=O)c5=O)c(F)c4)cc3C#N)[C@@H](C)C2)nc1`
1.30

Queued: `CCc1cnc(N2CCN(c3ncc(-c4ccc(-n5cnn(CCN6CCCC6)c5=O)c(F)c4)cc3C#N)[C@@H](C)C2)nc1`
1.17

Queued: `CCc1cnc(N2CCN(c3ncc(-c4ccc(-n5cnn(CCN(CC)CC)c5=O)c(F)c4)cc3C#N)[C@@H](C)C2)nc1`
0.90

Queued: `CCc1cnc(N2CCN(c3ncc(-c4ccc(-n5cnn(CN6CCCC6)c5=O)c(F)c4)cc3C#N)[C@@H](C)C2)nc1`
0.60

Queued: `CC(C)n1ncn(-c2ccc(-c3cnc(N4CCN(C(=O)OC(C)(C)C)C[C@@H]4C)nc3)cc2F)c1=O`
1.79

Queued: `CCCn1ncn(-c2ccc(-c3cnc(N4CCN(C(=O)OC(C)(C)C)C[C@@H]4C)nc3)cc2F)c1=O`
1.50

Queued: `CCOC(=O)n1ncn(-c2ccc(-c3cnc(N4CCN(c5ncc(CC)cn5)C[C@@H]4C)c(C#N)c3)cc2F)c1=O`
0.65
